biological target: Transcription initiation factor TFIID subunit 1 (Homo sapiens, UniProt P21675); experiment: Inhibition of TAF1 BD2 (unknown origin) by TR-FRET assay
Sequence (P21675 whole entry): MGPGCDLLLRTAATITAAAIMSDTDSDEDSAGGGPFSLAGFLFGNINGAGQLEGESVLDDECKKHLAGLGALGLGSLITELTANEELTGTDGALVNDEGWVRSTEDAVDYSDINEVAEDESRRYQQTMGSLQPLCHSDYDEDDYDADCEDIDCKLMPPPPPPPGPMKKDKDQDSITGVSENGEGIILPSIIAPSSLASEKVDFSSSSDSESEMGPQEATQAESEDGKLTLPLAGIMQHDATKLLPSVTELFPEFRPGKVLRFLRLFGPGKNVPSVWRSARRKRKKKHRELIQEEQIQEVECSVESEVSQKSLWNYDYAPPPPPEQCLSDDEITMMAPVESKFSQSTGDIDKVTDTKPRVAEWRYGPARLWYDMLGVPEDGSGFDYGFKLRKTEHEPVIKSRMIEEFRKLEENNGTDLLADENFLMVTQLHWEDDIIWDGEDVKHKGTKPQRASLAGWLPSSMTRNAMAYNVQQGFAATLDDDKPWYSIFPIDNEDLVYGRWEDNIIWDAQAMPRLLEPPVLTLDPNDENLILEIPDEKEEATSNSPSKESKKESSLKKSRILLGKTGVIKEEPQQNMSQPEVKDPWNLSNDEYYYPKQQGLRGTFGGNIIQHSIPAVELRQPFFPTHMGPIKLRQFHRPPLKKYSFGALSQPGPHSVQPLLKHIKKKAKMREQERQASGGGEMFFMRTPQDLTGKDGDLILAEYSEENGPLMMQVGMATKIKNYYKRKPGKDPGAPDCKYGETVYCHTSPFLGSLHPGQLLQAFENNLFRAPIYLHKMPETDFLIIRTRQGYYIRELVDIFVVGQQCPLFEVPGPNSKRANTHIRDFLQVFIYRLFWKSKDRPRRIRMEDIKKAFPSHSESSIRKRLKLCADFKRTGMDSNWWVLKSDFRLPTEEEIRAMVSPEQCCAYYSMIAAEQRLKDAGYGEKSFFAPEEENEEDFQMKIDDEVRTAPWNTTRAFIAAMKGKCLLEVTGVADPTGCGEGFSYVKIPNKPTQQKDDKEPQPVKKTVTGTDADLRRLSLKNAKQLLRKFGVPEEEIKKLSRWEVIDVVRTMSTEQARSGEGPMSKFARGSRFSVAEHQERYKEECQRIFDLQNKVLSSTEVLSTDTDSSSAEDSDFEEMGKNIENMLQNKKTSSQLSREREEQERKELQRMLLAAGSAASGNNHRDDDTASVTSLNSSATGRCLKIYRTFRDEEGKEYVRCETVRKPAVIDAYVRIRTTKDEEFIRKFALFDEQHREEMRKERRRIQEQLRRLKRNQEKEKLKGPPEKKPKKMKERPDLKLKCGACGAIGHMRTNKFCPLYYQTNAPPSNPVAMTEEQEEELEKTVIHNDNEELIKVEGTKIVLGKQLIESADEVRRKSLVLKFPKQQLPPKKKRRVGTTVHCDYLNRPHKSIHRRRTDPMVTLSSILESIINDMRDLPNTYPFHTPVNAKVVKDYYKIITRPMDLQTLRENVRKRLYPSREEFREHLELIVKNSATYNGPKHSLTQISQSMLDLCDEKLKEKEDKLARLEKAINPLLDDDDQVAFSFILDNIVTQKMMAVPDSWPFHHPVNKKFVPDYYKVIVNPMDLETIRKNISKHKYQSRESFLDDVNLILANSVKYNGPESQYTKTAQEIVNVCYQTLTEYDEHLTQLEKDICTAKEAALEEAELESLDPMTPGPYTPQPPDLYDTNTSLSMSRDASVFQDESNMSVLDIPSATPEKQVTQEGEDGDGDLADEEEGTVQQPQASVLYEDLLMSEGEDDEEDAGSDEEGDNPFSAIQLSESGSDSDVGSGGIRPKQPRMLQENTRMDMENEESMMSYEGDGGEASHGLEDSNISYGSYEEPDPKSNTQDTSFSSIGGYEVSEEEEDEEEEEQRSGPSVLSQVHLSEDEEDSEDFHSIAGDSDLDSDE
measurementLabel: IC50 (µM)
Value expressed in µM; do not type the unit.

q: // lookup IC50 | system=Transcription initiation factor TFIID subunit 1 (Homo sapiens, UniProt P21675) | key= CC1(C2CC2)NC(=O)N(CC(=O)Nc2ccc(Br)c(S(=O)(=O)N3CCCCC3)c2)C1=O (racemic)
a: 3.98

----------
molecular target: Bromodomain testis-specific protein (Homo sapiens, UniProt Q58F21, Y66A); assay: Displacement of Alexa Fluor 647 labelled ligand from His6/FLAG-tagged TEV fused BRDT BD2(1 to 397 residues)/[…] mutant (unknown origin) after 30 mins by TR-FRET assay
measurementLabel: pIC50
The meaning of pIC50 here: minus log10 of the concentration in molar units.

q: What does the record list as pIC50 for CC1(C2CC2)NC(=O)N(CC(=O)Nc2ccc(Br)c(S(=O)(=O)N3CCCCC3)c2)C1=O (racemic) ?
a: 4.80
